system: Phosphodiesterase 3 (Homo sapiens, UniProt Q14432+Q13370)
assayOverview: In vitro inhibition of cyclic AMP phosphodiesterase from human platelets
observationType: IC50 (nM)

Completed entries (count: 3):
CN(C(=O)OCCOc1ccc2c(c1)CN1CC(=O)NC1=N2)C1CCCCC1 : 13
CN(C(=O)CCCOc1ccc2c(c1Cl)CN1CC(=O)NC1=N2)C1CCCCC1 : 14
CN(C(=O)CCC[S+]([O-])c1ccc2c(c1)CN1CC(=O)NC1=N2)C1CCCCC1 (stereo unspecified) : 1700

[1] CN(C(=O)CCCOc1cccc2c1CN1CC(=O)NC1=N2)C1CCCCC1
[2] CN(C(=O)COc1ccc2c(c1)CN1CC(=O)NC1=N2)C1CCCCC1
[3] O=C1CN2Cc3cc(OCCCC(=O)NC4CCCCC4)ccc3N=C2N1
Rank entries according to their IC50, from the largest number down. Lab note: final answer is the ordered label list.
1, 2, 3
(1: 2000 nM, 2: 820 nM, 3: 72 nM)

[a] NC(=O)CCCOc1ccc2c(c1)CN1CC(=O)NC1=N2
[b] O=C1CN2Cc3cc(OCCCC(=O)N4CCCC4)ccc3N=C2N1
Select the item with the higher value of IC50 from the options a and b listed. Indicate which entry you chose by stating its label.
a
(a: 690 nM, b: 340 nM)

[P] CN(C(=O)CCCOc1ccc2c(c1)CN1C(=O)C(=O)NC1=N2)C1CCCCC1
[Q] CNC(=O)CCCOc1ccc2c(c1)CN1CC(=O)NC1=N2
Select the item with the higher value of IC50 from the options P and Q listed. Indicate which entry you chose by stating its label.
P

---

system: Phosphodiesterase; PDE3 & PDE4 (Homo sapiens) (UniProt P27815+Q14432+Q08499+Q07343+Q13370+Q08493)
assayOverview: In vivo inhibition of cyclic AMP phosphodiesterase from dog heart
conditionSummary: Canis lupus familiaris; in the assay text read “In vitro” for “In vivo”; target entry is the homologue from another species
observationType: IC25 (nM)

CN(C(=O)NCCOc1ccc2c(c1)CN1CC(=O)NC1=N2)C1CCCCC1 : 780
CN(C(=O)CCCOc1ccc2c(c1)CN1NC(=O)NC1=N2)C1CCCCC1 : 180
CN(C(=O)CCCOc1cccc2c1NC1=NC(=O)CN1C2)C1CCCCC1 : 1600
O=C1CN2Cc3cc(OCCCC(=O)N(CCCO)C4CCCCC4)ccc3N=C2N1 : 17
CC1c2cc(OCCCC(=O)N(C)C3CCCCC3)ccc2NC2=NC(=O)CN21 (centres undefined) : 14
CN(C(=O)CCCCc1ccc2c(c1)CN1CC(=O)NC1=N2)C1CCCCC1 : 220
CC(C)N(C(=O)CCCOc1ccc2c(c1)CN1CC(=O)NC1=N2)C1CCCCC1 : 15
CC(C)[C@H]1C(=O)NC2=Nc3ccc(OCCCC(=O)N(C)C4CCCCC4)cc3CN21 : 6400

[A] CN(C(=O)CCCOc1cccc2c1CN1CC(=O)NC1=N2)C1CCCCC1
[B] CC(O)[C@@H]1C(=O)NC2=Nc3ccc(OCCCC(=O)N(C)C4CCCCC4)cc3CN21 (some centres undefined)
Select the item with the higher value of IC25 from the options A and B listed. Indicate which entry you chose by stating its label.
B
(B: 3700 nM, A: 1500 nM)

[a] CN(C(=O)CCCOc1ccc2c(c1)CN1CCNC1=N2)C1CCCCC1
[b] O=C1CN2Cc3cc(OCCCC(=O)NC4CCCCC4)ccc3N=C2N1
[c] O=C1CN2Cc3cc(OCCCc4nnnn4C4CCCCC4)ccc3N=C2N1
[d] CC[C@@H]1C(=O)NC2=Nc3ccc(OCCCC(=O)N(C)C4CCCCC4)cc3CN21
[e] O=C1CN2Cc3cc(OCCCC(=O)N(CCn4ccnc4)C4CCCCC4)ccc3N=C2N1
Exam item: list the entries in increasing order of IC25. Lab note: final answer is the ordered label list.
e, c, b, d, a

[1] CN(C(=O)OCCOc1ccc2c(c1)CN1CC(=O)NC1=N2)C1CCCCC1
[2] O=C1CN2Cc3cc(OCCCC(=O)N(CCCCCO)C4CCCCC4)ccc3N=C2N1
Select the item with the higher value of IC25 from the options 1 and 2 listed. Indicate which entry you chose by stating its label.
1

[P] C=c1c(=O)[nH]c2n1Cc1cc(OCCCC(=O)N(C)C3CCCCC3)ccc1N=2
[Q] CN(C(=O)CCC[S+]([O-])c1ccc2c(c1)CN1CC(=O)NC1=N2)C1CCCCC1 (centres undefined)
[R] CN(C(=O)CCCSc1ccc2c(c1)CN1CC(=O)NC1=N2)C1CCCCC1
[S] CN(C(=O)CCCOc1ccc2c(c1)CN1CC(=O)NC1=N2)C1CCCCCCC1
[T] CN(C(=O)CCCOc1ccc2c(c1)CN1C(=N2)NC(=O)[C@@H]1CO)C1CCCCC1
Rank entries according to their IC25, from the largest number down. Lab note: final answer is the ordered label list.
Q, R, T, P, S

[I] O=C1CN2Cc3cc(OCCCC(=O)OC4CCCCC4)ccc3N=C2N1
[II] CN1C(=O)CN2Cc3cc(OCCCC(=O)N(C)C4CCCCC4)ccc3N=C21
[III] CN(C(=O)CCCOc1ccc2c(c1)CN1C(=O)CNC1=N2)C1CCCCC1
[IV] CN(C(=O)CCCOc1ccc2c(c1)CN1C(=N2)NC(=O)C1(C)C)C1CCCCC1
[V] CN(C(=O)CCCOc1ccc2c(c1)CN1C(=N2)NC(=O)C12CC2)C1CCCCC1
Exam item: list the entries in increasing order of IC25. Lab note: final answer is the ordered label list.
I, III, IV, V, II
